experiment-notes: folding enthalpy; higher = less favourable; fluorescence melt of hairpins on a sequencing array, two-state fit
experimental-setup: sodium 0.088 M
The reader will find reported folding enthalpy values listed item by item below.

ordered-residues: GGGTTACGAAAGTATCCC (((.(((....))).)))
folding enthalpy, kcal/mol: -43.4

ordered-residues: GGGCTCGGAAACGGGTCC ((.(.((....)).).))
folding enthalpy, kcal/mol: -34.5

ordered-residues: GGTCTTGGAAACAGGACC ((((.((....)).))))
folding enthalpy, kcal/mol: -36.3

ordered-residues: GGATAGTCGAAAGACTCC (((..(((....))))))
folding enthalpy, kcal/mol: -13.6

ordered-residues: GATCAGATGCTGATC ((((((...))))))
folding enthalpy, kcal/mol: -30.6

ordered-residues: GACAATGGAAACATCGTC (((.(((....))).)))
folding enthalpy, kcal/mol: -26.4

ordered-residues: GTAGTCGAAAGACTAC ((((((....))))))
folding enthalpy, kcal/mol: -31.9

ordered-residues: GCGGGCAGCCGC ((((....))))
folding enthalpy, kcal/mol: -16.4

ordered-residues: CGGCCGGAAACGGTCCG ((((((....))).)))
folding enthalpy, kcal/mol: -32

ordered-residues: GCCTAGCGAAAGCTTTGC ((..(((....)))..))
folding enthalpy, kcal/mol: -12

ordered-residues: GCGCAGCGAAAGCTCTGC ((..(((....)))..))
folding enthalpy, kcal/mol: -7.6

ordered-residues: GCAGCTGGAAACAGCCGC ((.((((....)))).))
folding enthalpy, kcal/mol: -29.3

ordered-residues: GATTTAGGAAACTGAATC ((((.((....)).))))
folding enthalpy, kcal/mol: -26.4

ordered-residues: GTTGGTGGAAACACTAGC (.(.(((....))).).)
folding enthalpy, kcal/mol: -9.95

ordered-residues: GCCGCAGGAAACCGCAGC ((.((.(....).)).))
folding enthalpy, kcal/mol: -9.87

ordered-residues: GGAGGTGGAAACGTCTCC ((((..(....)..))))
folding enthalpy, kcal/mol: -18.4

ordered-residues: GATCTCCGGCGAGATC ((((((....))))))
folding enthalpy, kcal/mol: -27.1

ordered-residues: GATCCTTTTAGGATC ((((((...))))))
folding enthalpy, kcal/mol: -28.8

ordered-residues: GTAGGGGCGAAAGCCTAC (((..(((....))))))
folding enthalpy, kcal/mol: -10.8

ordered-residues: GATCATGGTATGATC ((((((...))))))
folding enthalpy, kcal/mol: -36.3

ordered-residues: GCCCGCGGAAACGCAGGC (((.(((....))).)))
folding enthalpy, kcal/mol: -32.4

ordered-residues: GATAGGACGAAAGTCATC (((..(((....))))))
folding enthalpy, kcal/mol: -7.28

ordered-residues: GTGTGCGAAAGCAATCAC ((((((....)))..)))
folding enthalpy, kcal/mol: -16.1
